target: Genome polyprotein (dengue virus type 2, UniProt P29990); format: functional, Thailand/16681/1984
Sequence (P29990 1346-1475 limits assumed): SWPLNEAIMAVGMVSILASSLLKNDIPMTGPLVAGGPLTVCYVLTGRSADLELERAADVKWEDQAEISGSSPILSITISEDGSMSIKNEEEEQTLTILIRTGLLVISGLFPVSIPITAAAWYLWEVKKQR
Sequence (P29990 1476-2093 limits assumed): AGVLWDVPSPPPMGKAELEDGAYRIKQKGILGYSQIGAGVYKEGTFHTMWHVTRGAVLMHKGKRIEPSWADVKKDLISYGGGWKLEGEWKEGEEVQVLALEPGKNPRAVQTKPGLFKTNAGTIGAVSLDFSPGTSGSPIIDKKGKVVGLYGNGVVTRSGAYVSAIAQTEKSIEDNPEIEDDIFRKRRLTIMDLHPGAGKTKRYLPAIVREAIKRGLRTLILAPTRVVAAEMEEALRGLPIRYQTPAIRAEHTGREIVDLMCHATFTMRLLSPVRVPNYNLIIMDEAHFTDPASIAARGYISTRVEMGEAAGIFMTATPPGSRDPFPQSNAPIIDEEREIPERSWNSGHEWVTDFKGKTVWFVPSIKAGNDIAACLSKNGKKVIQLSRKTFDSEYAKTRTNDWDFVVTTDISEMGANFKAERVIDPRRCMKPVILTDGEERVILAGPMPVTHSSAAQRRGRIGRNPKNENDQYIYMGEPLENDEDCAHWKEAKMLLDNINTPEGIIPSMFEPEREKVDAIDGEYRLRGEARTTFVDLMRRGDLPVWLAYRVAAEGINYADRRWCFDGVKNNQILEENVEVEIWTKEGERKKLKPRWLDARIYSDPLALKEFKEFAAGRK
Kindly supply the reported IC50 values for the records listed here.

*Q* Form field: IC50 recorded for NCc1cccc(NC(=O)[C@@H](NC(=O)OCc2ccccc2)C2CCN(Cc3cn[nH]c3)CC2)c1 with Genome polyprotein (dengue virus type 2, UniProt P29990) (enter value)
*A* > 99.5 µM

*Q* Find the measured IC50: item O=C(Nc1cnc2c(c1)CNC2)c1cc(F)cc2[nH]ncc12 , target or system Genome polyprotein (dengue virus type 2, UniProt P29990).
*A* 36.5 µM

*Q* Notebook entry, Genome polyprotein (dengue virus type 2, UniProt P29990) assay: IC50 of O=C(O)[C@@H]1CCCC[C@H]1NS(=O)(=O)c1ccc(Oc2ccccc2Cl)cc1 = ?
*A* > 99.5 µM

*Q* Which measured IC50 belongs to O=C(O)c1cc(Cl)ccc1S(=O)(=O)NC1CCC(N2CCCCC2=O)CC1 (stereo unspecified) , tested on Genome polyprotein (dengue virus type 2, UniProt P29990)?
*A* > 99.5 µM

*Q* Query for Genome polyprotein (dengue virus type 2, UniProt P29990): what IC50 does the record show for O=C1Cc2cc(C(=O)Nc3ccc4c(c3)CNC4)c(Cl)cc2N1 ?
*A* > 99.5 µM

*Q* # query: IC50 | item O=S(=O)(c1cccnc1)N1CCN(Cc2c[nH]c3ccccc23)CC1 | system: Genome polyprotein (dengue virus type 2, UniProt P29990)
*A* > 99.5 µM

*Q* Find IC50 (Genome polyprotein (dengue virus type 2, UniProt P29990)) for the entry CCn1c(=O)c(N2CCC[C@@H]2Cn2cncn2)nc2ccccc21
*A* > 99.5 µM

*Q* # query: IC50 | item O=C(Nc1ccc(-c2nnn[nH]2)cc1)c1cc(Cl)cc(C2CC2)c1 | system: Genome polyprotein (dengue virus type 2, UniProt P29990)
*A* 69.5 µM

*Q* Lookup: IC50 / Genome polyprotein (dengue virus type 2, UniProt P29990) / O=C(O)c1cc2cc(-c3cc(Cl)cc(C4CC4)c3)ccc2[nH]1
*A* 15.7 µM

*Q* Query for Genome polyprotein (dengue virus type 2, UniProt P29990): what IC50 does the record show for COC(=O)[C@@H]1CC2(CC[C@@H]1NS(=O)(=O)c1ccc(Oc3ccccc3Cl)cc1)CC2 ?
*A* > 99.5 µM

*Q* Give recorded IC50 with Genome polyprotein (dengue virus type 2, UniProt P29990) for the following molecule: Cc1c(C(=O)Nc2cc(SC3COC3)ccn2)cc(C2CC2)n1C
*A* > 99.5 µM

*Q* Enter reported IC50 observed with Genome polyprotein (dengue virus type 2, UniProt P29990) for CNc1nc2cc(-c3ccc4c(c3)C[C@H](N)C4)ccc2o1
*A* > 99.5 µM

*Q* Please tell me: IC50 of N[C@@H](Cc1c[nH]cn1)C(=O)N1CCC2(CC1)OCCc1cc(O)ccc12 , system Genome polyprotein (dengue virus type 2, UniProt P29990)?
*A* > 99.5 µM

*Q* Notebook entry, Genome polyprotein (dengue virus type 2, UniProt P29990) assay: IC50 of O=C(NCC(F)F)[C@H](Nc1ccc2c(c1)CNC2)c1cc(Br)cc2cn[nH]c12 = ?
*A* > 99.5 µM

*Q* Query for Genome polyprotein (dengue virus type 2, UniProt P29990): what IC50 does the record show for Cc1c(C(=O)Nc2cc(F)cc(CN)c2)cc(C2CC2)n1C ?
*A* > 99.5 µM

*Q* State its IC50 on Genome polyprotein (dengue virus type 2, UniProt P29990): Cc1ccc2cccc(NC(=O)C3CCN(c4ccc(C=O)cc4)CC3)c2n1
*A* 22.4 µM

*Q* Find IC50 (Genome polyprotein (dengue virus type 2, UniProt P29990)) for the entry O=C(Nc1cc(-c2cccnc2)ccn1)c1cc(C2CC2)no1
*A* > 99.5 µM

*Q* // map O=C(O)c1cc(Cl)ccc1S(=O)(=O)N[C@H]1CC[C@@H](Oc2ccccc2)CC1 to recorded IC50 (system: Genome polyprotein (dengue virus type 2, UniProt P29990))
*A* > 99.5 µM

*Q* So what IC50 did C[C@@H](C(=O)Nc1cccc(CN)c1)c1ccc(OCc2ccccc2)cc1 get with Genome polyprotein (dengue virus type 2, UniProt P29990)?
*A* > 99.5 µM

*Q* Entry O=C(Cn1ccnc(N2CC[C@H](CO)C2)c1=O)Nc1ccccc1 , system Genome polyprotein (dengue virus type 2, UniProt P29990): what IC50 was measured?
*A* > 99.5 µM

*Q* What value of IC50 on Genome polyprotein (dengue virus type 2, UniProt P29990) does O=C(O)c1nn(-c2ccccc2)cc1Cc1c[nH]c2ccc(Cl)cc12 have?
*A* 56.5 µM

* * *

biological target: Genome polyprotein (dengue virus type 2, UniProt P29990); format: functional, Thailand/16681/1984
assayMetric: IC50 (µM)
Note: unit µM is implicit; provide only the numeric part.

*Q* What does the record list as IC50 for NCc1cccc(NC(=O)c2cc(Cl)cc(Cl)c2OCc2ccccc2)c1 ?
*A* 42.6

*Q* Look up IC50 for this molecule: O=C(Nc1cc(Cl)cc([C@H](Nc2cccc(-c3nn[nH]n3)c2)C(=O)NC[C@H]2CCCO2)c1)OCc1ccccc1
*A* 17.6

* * *

target: Genome polyprotein (dengue virus type 2, UniProt P29990); format: functional, Thailand/16681/1984
Record form. Attribute: IC50. Fill in for each entry.

*Q* Name the reported IC50 value associated with the compound FC1(c2cccnc2)CN(Cc2c[nH]c3ccccc23)C1
*A* > 99.5 µM

*Q* Would you kindly share the measured IC50 for NCc1cccc(NC(=O)C[C@H](NC(=O)OCc2ccccc2)c2ccc(C(F)(F)F)cc2)c1 ?
*A* 58.1 µM

*Q* # IC50 lookup, item Cc1cc(C(=O)N[C@@H]2CC[C@@H]3CN(C)C[C@@H]32)sc1C=O
*A* > 99.5 µM

*Q* Given the entry Cc1ncsc1C(=O)N[C@H](C(=O)Nc1cccc(CN)c1)c1ccc(OCc2ccccc2)cc1 , report its measured IC50.
*A* > 99.5 µM

*Q* # lookup: IC50 of CCn1c(=O)c(N2CC[C@]3(CCSC3)C2)nc2ccccc21
*A* > 99.5 µM

*Q* I have this compound here, CC[C@H](Cc1nnn[nH]1)c1ccc(NC(=O)c2cc(Cl)cc(C3CC3)c2)cc1 , and I need its recorded IC50.
*A* 55.2 µM

*Q* Which IC50 reading was recorded for the compound CC(C)c1nccn1C[C@H]1CCCN1C(=O)Nc1ccc2c(c1)CNC2 ?
*A* > 99.5 µM

*Q* # query: IC50 of entry O=C(Nc1ccc2c(c1)CNC2)c1cc(Cl)cc(N2CCCC2=O)c1
*A* > 99.5 µM

*Q* Which IC50 value belongs to COc1cc(Br)cc(C(=O)Nc2ccc3c(c2)CNC3)c1 ?
*A* > 99.5 µM

*Q* Sample Cc1cc(C(=O)Nc2cccc(CN)c2)nc2c(C(C)C)cnn12 — what was its IC50?
*A* > 99.5 µM

* * *

molecular target: Genome polyprotein (dengue virus type 2, UniProt P29990); format: functional, Thailand/16681/1984
assayMetric: IC50

*Q* Under Genome polyprotein (dengue virus type 2, UniProt P29990): IC50 value of Cn1cc2cc(C#N)cc(-c3ccc4[nH]c(C(=O)O)cc4c3)c2n1 ?
*A* > 100 µM

*Q* Find the measured IC50: item NCc1cn(CCNC(=O)c2cc(Cl)cc(NC(=O)OCc3ccccc3)c2)nn1 , target or system Genome polyprotein (dengue virus type 2, UniProt P29990).
*A* > 100 µM

*Q* Recall the recorded IC50 for C=C(C)c1cccc([C@@H](NC(=O)OCc2ccccc2)C(=O)Nc2cccc(CN)c2)c1 with Genome polyprotein (dengue virus type 2, UniProt P29990) and state it.
*A* > 100 µM

*Q* Which IC50 is reported with Genome polyprotein (dengue virus type 2, UniProt P29990) for this entry: O=C(Nc1ccc2c(c1)CNC2)c1cc(Cl)cc2nn(C3CCC3)cc12 ?
*A* 89.2 µM

*Q* Quick check: IC50 on Genome polyprotein (dengue virus type 2, UniProt P29990), item O=C(Nc1cccc(-n2nn[nH]c2=O)c1)c1cc(Cl)cc(N2CCCC2=O)c1 ?
*A* > 100 µM

* * *

target: Genome polyprotein (dengue virus type 2, UniProt P29990); format: functional, Thailand/16681/1984
pIC50: −log10 of the molar value.
Record form. Attribute: pIC50. Fill in for each entry.

*Q* // pIC50 lookup, key: CNCc1cccc(NC(=O)c2cc(Cl)cc3[nH]ncc23)c1
*A* 4.14

*Q* Sample CC[C@H](Cc1nnn[nH]1)c1ccc(NC(=O)[C@H]2[C@H]3CCCCC[C@H]3[C@H]2NC(=O)OCc2ccccc2)cc1 — what was its pIC50?
*A* 4.64

*Q* Consider the molecule shown here: O=C(Nc1cc(-c2cccnc2)ccn1)c1cnn2c1CCC2 What is its recorded pIC50?
*A* < 4.00

*Q* I'd like to know its pIC50. The molecule in question is Cc1c(C(=O)Nc2cccc(CN3CCCC3=O)c2)cc(C2CC2)n1C
*A* < 4.00

*Q* Please look up its pIC50: CCOc1cccc(-c2ccc(S(=O)(=O)Nc3cc4c(cc3C(=O)O)CCC4)cc2)c1
*A* 5.06

*Q* Suppose we examine the molecule NCc1cccc(NC(=O)[C@@H](NC(=O)OCc2ccccc2)c2ccc(OCc3ccccc3)cc2)c1 ; what pIC50 value has been reported?
*A* 4.85

*Q* Looking for the measured pIC50 of NCc1cccc(C(=O)Nc2cc(Cl)cc(NC(=O)OCc3ccccc3)c2)c1 , can you help?
*A* 4.17

*Q* Name the recorded pIC50 for CCCC[C@@H](NC(=O)OC(C)(C)C)C(=O)N[C@@H](C(=O)NCc1ccc(CN)cc1)c1ccc(OCc2ccccc2)cc1 .
*A* 4.44

*Q* Name the recorded pIC50 for CC(C)(O)c1cncc(NC(=O)c2cccc3c2CC(=O)N3)c1 .
*A* < 4.00

*Q* Report pIC50 for NC[C@H]1CC[C@H](CNC(=O)[C@@H](NC(=O)OCc2ccccc2)c2ccc(OCc3ccccc3)cc2)CC1 please.
*A* < 4.00

*Q* # get_value(readout='pIC50', item= CN(C)CCc1ccc(NC(=O)c2cc(Cl)cc(NC(=O)OCc3ccccc3)c2)cc1 )
*A* < 4.00

*Q* Consider the molecule shown here: O=C(O)c1cc(Cl)ccc1S(=O)(=O)Nc1ccc(CN2CCCCC2)cc1 What is its recorded pIC50?
*A* < 4.00

*Q* # input molecule: NCc1ccccc1C1CCN(C(=O)[C@@]23CNC[C@]2(C(F)(F)F)C3)CC1 ; wanted: its pIC50
*A* < 4.00

*Q* pIC50 for Cc1nn(C)cc1-c1ccc(S(=O)(=O)Nc2ccc(Cl)cc2C(=O)O)cc1 ?
*A* 4.07

*Q* Request the reported pIC50 associated with O=C(Nc1ccc2c(c1)CNC2)c1ccnc(CO)c1
*A* < 4.00

*Q* Look at this molecule and give its reported pIC50. CC(C)(C)OC(=O)NCc1ccc(I)c(NC(=O)c2cc(Cl)cc(NC(=O)OCc3ccccc3)c2)c1
*A* < 4.00

*Q* Request the reported pIC50 associated with Cc1c(C(=O)Nc2cccc(Cn3cccn3)c2)cc(C2CC2)n1C
*A* < 4.00

*Q* Please give the measured pIC50 for this molecule: NCCc1cccc(NC(=O)c2cccc3c2CC(=O)N3)c1
*A* < 4.00

*Q* Given the molecule CCn1ccnc(N(C)[C@@H](CO)Cc2c[nH]c3ccccc23)c1=O , what is its reported pIC50?
*A* < 4.00

*Q* Which pIC50 value is on record for Cn1cc(CCOc2ccc([C@@H](NC(=O)OCc3ccccc3)C(=O)Nc3cccc(CN)c3)cc2)nn1 ?
*A* < 4.00

*Q* Entry CCCC[C@H](N)C(=O)N[C@@H](C(=O)NCc1ccc(C(N)=O)cc1)c1ccc(OCc2ccccc2)cc1 has what pIC50?
*A* < 4.00

*Q* Query (molecule): Cc1c(C(=O)Nc2ccc(CCN)cc2)cc(C2CC2)n1C ; field requested: pIC50
*A* < 4.00

*Q* Which value of pIC50 has been reported for O=C(Nc1cc(Cl)cc(C(=O)Nc2cccc(Cc3nn[nH]n3)c2)c1)OCc1ccccc1 in the records?
*A* 4.66

*Q* Record request: pIC50 value, item Nc1ccncc1-c1cc(F)cc(C(=O)Nc2ccc3c(c2)CNC3)c1
*A* < 4.00

*Q* Any idea what its pIC50 is? The molecule is CCn1c(=O)c(N2CC[C@]3(CCNC3=O)C2)nc2ccccc21
*A* < 4.00

*Q* Query: pIC50; subject: CC(C)(C)OC(=O)NCc1cc(Br)cc(NC(=O)c2cc(Cl)cc(NC(=O)OCc3ccccc3)c2)c1
*A* < 4.00

*Q* State the recorded pIC50 for this entry: O=C(N[C@H]1[C@H]2CCCCC[C@H]2[C@H]1C(=O)Nc1cccc(-n2nn[nH]c2=O)c1)OCc1ccccc1
*A* 4.57

*Q* I have this molecule here, CNC(=O)[C@H](Nc1cncc(C(=O)O)c1)c1cc(Cl)cc(C2CC2)c1 , and I need its recorded pIC50.
*A* < 4.00

*Q* Requested field: pIC50. Item: Cn1nc(C(=O)Nc2cc([C@H]3CCOC3)ccn2)cc1C1CC1
*A* < 4.00

*Q* Requested field: pIC50. Item: O=C(NC[C@H]1CCCO1)[C@H](Nc1ccc2c(c1)CNC2)c1cc(Cl)cc2[nH]ncc12
*A* < 4.00

*Q* May I ask what pIC50 has been recorded for Cn1ccc(-c2n[nH]cc2CN2CCC(c3nc4ccccc4s3)CC2)n1 ?
*A* < 4.00

*Q* Entry O=C(Nc1ccc2c(c1)C(=O)OC2)c1cc(CC2CCNCC2)ccc1F has what pIC50?
*A* < 4.00

*Q* Name the recorded pIC50 for COc1ccc(NS(=O)(=O)c2ccc(Cl)cc2C(=O)O)cc1OC1CCCC1 .
*A* < 4.00

*Q* Which pIC50 value is on record for CC(=O)Nc1cccc(-c2ccc(S(=O)(=O)Nc3ccc(Cl)cc3C(=O)O)cc2)c1 ?
*A* 4.62

*Q* So what's the measured pIC50 for this one? CN(C)Cc1ccc(NC(=O)c2cc(Cl)cc(NC(=O)OCc3ccccc3)c2)cc1
*A* < 4.00

*Q* I have this molecule here, Cc1cc(-c2cccc([C@@H](NC(=O)OCc3ccccc3)C(=O)Nc3cccc(CN)c3)c2)ccn1 , and I need its recorded pIC50.
*A* < 4.00

*Q* Returns the measured pIC50 for the input molecule. Input: Cc1c(C(=O)Nc2cccc(-c3ccoc3)c2)cc(C2CC2)n1C
*A* < 4.00

*Q* So what does the record say about pIC50 for O=Cc1ccc(N2CCC(C(=O)NCCc3ccc(O)c(O)c3)CC2)cc1 ?
*A* 4.46

*Q* Which pIC50 is listed for Cn1nc(NC(=O)c2cc(Cl)cc(NC(=O)OCc3ccccc3)c2)c2c1CNC2 ?
*A* 4.05
